Tested on: MAO
Assay: MAO inhibitory activity (Holts method, rat liver mitochondrial enzyme)
Format: biochemical
METRIC: Inhibition Rate of MAO (%)
Express it in %; write the number only.

# CHEM SMILES, UNIT ABBREV, DATA VALUE
measured = [
    ("Cc1cccc2sc(NC(=O)CN3CCc4ccccc4[C@H]3c3ccccc3)nc12", "%", 57.11),
]

Quick note, Inhibition Rate of MAO (%) for "O=C(CN1CCc2ccccc2[C@H]1c1ccccc1)Nc1nc2ccc(Br)cc2s1" landed at 24.15

Quick note, Inhibition Rate of MAO (%) for "COc1cccc2sc(NC(=O)CN3CCc4ccccc4[C@H]3c3ccccc3)nc12" landed at 5.70

Quick note, Inhibition Rate of MAO (%) for "Cc1ccc2sc(NC(=O)CN3CCc4ccccc4[C@H]3c3ccccc3)nc2c1" landed at 16.72

Quick note, Inhibition Rate of MAO (%) for "O=C(CN1CCc2ccccc2[C@H]1c1ccccc1)Nc1nc2c(Cl)cc(Cl)cc2s1" landed at 10.19

Quick note, Inhibition Rate of MAO (%) for "O=C(CN1CCc2ccccc2[C@H]1c1ccccc1)Nc1nc2ccc([N+](=O)[O-])cc2s1" landed at 12.51

Quick note, Inhibition Rate of MAO (%) for "O=C(CN1CCc2ccccc2[C@H]1c1ccccc1)Nc1nc2c(Br)cccc2s1" landed at 43.37

Quick note, Inhibition Rate of MAO (%) for "O=C(CN1CCc2ccccc2[C@H]1c1ccccc1)Nc1nc2cc(Br)ccc2s1" landed at 9.29

====

Biological target: MAO–A (Rattus norvegicus)
Construct: the obtained SD rat liver mitochondrial concentrate was the experimental monoamine oxidase stock solution; from tissue; host or cells: male SD rat liver mitochondria
Sequence (P21396 whole entry): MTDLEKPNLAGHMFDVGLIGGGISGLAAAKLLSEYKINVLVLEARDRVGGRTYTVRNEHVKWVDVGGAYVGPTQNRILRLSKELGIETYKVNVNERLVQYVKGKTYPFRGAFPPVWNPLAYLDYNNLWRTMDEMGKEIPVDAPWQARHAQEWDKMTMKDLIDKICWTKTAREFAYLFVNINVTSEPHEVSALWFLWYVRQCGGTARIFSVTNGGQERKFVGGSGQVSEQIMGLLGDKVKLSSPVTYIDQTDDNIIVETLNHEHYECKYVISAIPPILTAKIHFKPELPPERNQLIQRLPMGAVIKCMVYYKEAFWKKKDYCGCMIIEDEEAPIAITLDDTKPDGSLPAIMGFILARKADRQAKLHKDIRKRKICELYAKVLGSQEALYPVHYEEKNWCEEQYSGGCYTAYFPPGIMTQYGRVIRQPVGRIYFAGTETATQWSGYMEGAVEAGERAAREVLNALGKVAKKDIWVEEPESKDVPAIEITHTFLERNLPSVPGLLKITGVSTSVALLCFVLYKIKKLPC
Experiment: MAO–A inhibitory activity (enzyme pre-incubated with pargyline)
Format: biochemical
METRIC: Inhibition Rate (%) MAO–A
Express it in %; write the number only.

Worked set:
# COMPOUND, UNIT ABBREV, Inhibition Rate (%) MAO–A
rows = [
    ("O=C(CN1CCc2ccccc2[C@H]1c1ccccc1)Nc1nc2c(Br)cccc2s1 [Compound 4d]", "%", 18.05),
    ("O=C(CN1CCc2ccccc2[C@H]1c1ccccc1)Nc1nc2ccc(Cl)cc2s1 [Compound 4c]", "%", 12.03),
]

Quick note, Inhibition Rate (%) MAO–A for O=C(CN1CCc2ccccc2[C@H]1c1ccccc1)Nc1nc2cc(Cl)ccc2s1 [Compound 4b] landed at 3.01

Quick note, Inhibition Rate (%) MAO–A for Cc1ccc2nc(NC(=O)CN3CCc4ccccc4[C@H]3c3ccccc3)sc2c1 [Compound 4i] landed at 2.51

Quick note, Inhibition Rate (%) MAO–A for O=C(CN1CCc2ccccc2[C@H]1c1ccccc1)Nc1nc2ccc(Br)cc2s1 [Compound 4f] landed at 15.04

Quick note, Inhibition Rate (%) MAO–A for Cc1cccc2sc(NC(=O)CN3CCc4ccccc4[C@H]3c3ccccc3)nc12 [Compound 4g] landed at 9.03

====

Molecular target: BuChE (Homo sapiens, UniProt P06276)
Sequence (P06276 29-602): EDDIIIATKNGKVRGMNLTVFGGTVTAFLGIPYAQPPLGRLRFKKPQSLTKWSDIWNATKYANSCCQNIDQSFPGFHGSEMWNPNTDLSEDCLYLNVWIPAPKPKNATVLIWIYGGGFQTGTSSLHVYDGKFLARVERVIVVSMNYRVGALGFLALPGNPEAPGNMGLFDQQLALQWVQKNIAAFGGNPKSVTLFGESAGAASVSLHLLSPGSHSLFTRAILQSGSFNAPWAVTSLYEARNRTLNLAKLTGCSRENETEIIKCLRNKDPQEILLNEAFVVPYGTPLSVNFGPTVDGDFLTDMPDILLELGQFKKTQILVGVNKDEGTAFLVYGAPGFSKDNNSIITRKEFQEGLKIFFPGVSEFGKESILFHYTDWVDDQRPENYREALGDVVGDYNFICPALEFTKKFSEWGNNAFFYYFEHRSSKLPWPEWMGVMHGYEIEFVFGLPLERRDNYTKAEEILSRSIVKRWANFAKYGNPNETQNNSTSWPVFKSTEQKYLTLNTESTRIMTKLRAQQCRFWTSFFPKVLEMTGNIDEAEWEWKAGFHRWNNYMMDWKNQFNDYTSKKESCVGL
Assay: biochemical
Type: biochemical
I'd appreciate it if you marked entries class 1 when Inhibition Rate (%) BuChE is lower than 60% and class 0 when it is not.

# MOLECULE, ASSIGNED CATEGORY
measured = [
    ("O=C(CN1CCc2ccccc2[C@H]1c1ccccc1)Nc1nc2c(Br)cc(Br)cc2s1 [Compound 4p]", "class 1"),
    ("COc1ccc2nc(NC(=O)CN3CCc4ccccc4[C@H]3c3ccccc3)sc2c1 [Compound 4l]", "class 1"),
    ("O=C(CN1CCc2ccccc2[C@H]1c1ccccc1)Nc1nc2c(Cl)cccc2s1 [Compound 4a]", "class 1"),
    ("O=C(CN1CCc2ccccc2[C@H]1c1ccccc1)Nc1nc2cc(Cl)ccc2s1 [Compound 4b]", "class 0"),
    ("O=C(CN1CCc2ccccc2[C@H]1c1ccccc1)Nc1nc2c(Br)cccc2s1 [Compound 4d]", "class 0"),
]

[Q] Input COc1ccc2sc(NC(=O)CN3CCc4ccccc4[C@H]3c3ccccc3)nc2c1 [Compound 4k] ; condition: Inhibition Rate (%) BuChE strictly below 60%. Does it hold?
[A] class 1

[Q] Input Cc1cccc2sc(NC(=O)CN3CCc4ccccc4[C@H]3c3ccccc3)nc12 [Compound 4g] ; condition: Inhibition Rate (%) BuChE strictly below 60%. Does it hold?
[A] class 0

[Q] Input O=C(CN1CCc2ccccc2[C@H]1c1ccccc1)Nc1nc2ccc([N+](=O)[O-])cc2s1 [Compound 4n] ; condition: Inhibition Rate (%) BuChE strictly below 60%. Does it hold?
[A] class 1
